assaySystem: T1, IL-11R on STAT3 Reporter (Luciferase)-HEK293 cells (UniProt Q14626 23-422)
T1 sequence (looked up): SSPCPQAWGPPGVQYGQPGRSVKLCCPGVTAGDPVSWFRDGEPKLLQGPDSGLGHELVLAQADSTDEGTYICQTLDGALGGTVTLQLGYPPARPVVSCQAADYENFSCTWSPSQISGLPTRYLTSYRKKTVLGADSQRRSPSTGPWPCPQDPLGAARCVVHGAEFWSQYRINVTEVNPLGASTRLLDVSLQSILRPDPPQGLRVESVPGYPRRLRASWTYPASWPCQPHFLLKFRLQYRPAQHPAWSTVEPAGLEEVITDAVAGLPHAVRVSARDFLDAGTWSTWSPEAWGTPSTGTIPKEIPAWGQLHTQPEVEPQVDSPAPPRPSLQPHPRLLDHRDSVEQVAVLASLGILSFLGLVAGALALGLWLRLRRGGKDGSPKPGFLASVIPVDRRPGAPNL
protocolDetails: cell-based or functional assay
endpointLabel: IC50, STAT3 luciferase reporter assay (HEK293), inhibiting IL-11, Assay 2

• mAb13 (antibody, V domains shown, Expressed as human IgG4 (S228P EU)) VH: EVQLLESGGGLVQPGGSLRLSCAASGFTFSWYSMTWVRQAPGKGLEWVSSIVPYGDLTQYADSVKGRFTISRDNSKNTLYLQMNSLRAEDTAVYYCAKPEDWGRFDLWGRGTLVTVSS VL: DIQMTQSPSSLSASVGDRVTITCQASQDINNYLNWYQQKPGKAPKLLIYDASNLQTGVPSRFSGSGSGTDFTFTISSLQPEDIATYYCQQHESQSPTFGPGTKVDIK = 0.19 µg/mL
• mAb12 (antibody, V domains shown, Expressed as human IgG4 (S228P EU)) VH: EVQLLESGGGLVQPGGSLRLSCAASGFTFSWYSMTWVRQAPGKGLEWVSSIVPYGDLTQYADSVKGRFTISRDNSKNTLYLQMNSLRAEDTAVYYCAKGPGWYSFDLWGRGTLVTVSS VL: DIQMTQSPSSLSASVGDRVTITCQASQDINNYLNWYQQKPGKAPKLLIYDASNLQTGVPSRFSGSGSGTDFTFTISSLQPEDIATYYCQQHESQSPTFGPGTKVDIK = 0.39 µg/mL
• mAb14 (antibody, V domains shown, Expressed as human IgG4 (S228P EU)) VH: EVQLLESGGGLVQPGGSLRLSCAASGFTFSWYSMTWVRQAPGKGLEWVSSIVPYGDLTQYAESVKGRFTISRDNSKNTLYLQMNSLRAEDTAVYYCAKGPGWGSFDLWGRGTLVTVSS VL: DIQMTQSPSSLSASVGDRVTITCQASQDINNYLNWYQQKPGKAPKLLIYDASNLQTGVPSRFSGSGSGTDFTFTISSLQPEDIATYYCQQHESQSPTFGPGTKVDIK = 0.28 µg/mL
